Listed here: items and their measured Kd.
- system-name: T1, monovalent hVISTA-ECD (human VISTA extracellular domain with His tail) (human, UniProt Q9H7M9 33-193)
- T1 construct: analyte flowed over captured antibody; also called huVISTA-His
- T1 sequence (Q9H7M9 other isoform, or with tags, fused parts or gaps limits assumed): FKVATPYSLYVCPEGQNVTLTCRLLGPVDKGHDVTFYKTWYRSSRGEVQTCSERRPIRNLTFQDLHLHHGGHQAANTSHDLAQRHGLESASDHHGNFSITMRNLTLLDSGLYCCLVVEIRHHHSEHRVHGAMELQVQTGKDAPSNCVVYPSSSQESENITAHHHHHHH
- experiment-notes: SPR, pH 6.0
Unit nM implied. Number only.

P1-065329 (41F11_VH_D31E/S35Y/Y50W/S55E/A60H/Y100E/F100aG VK_A64G) (antibody, V domains shown, Kabat positions; also called P1-065329-1) VH: QVQLVESGGGLVKPGGSLRLSCAASGFTFSEYYMYWIRQAPGKGLEWVSWISNSGEPIYYHDSVKGRFTISRDNAKNSLYLQMNSLRAEDTAVYYCARDLPGWEGDLWGRGTLVTVSS VL: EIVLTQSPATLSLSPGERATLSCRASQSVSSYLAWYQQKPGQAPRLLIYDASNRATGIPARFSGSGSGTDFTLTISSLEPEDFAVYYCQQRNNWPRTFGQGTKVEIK    11.9
P1-065316 (41F11_VH_A60H VK A64G) (antibody, V domains shown, Kabat positions; also called P1-065316-1) VH: QVQLVESGGGLVKPGGSLRLSCAASGFTFSDYYMSWIRQAPGKGLEWVSYISNSGSPIYYHDSVKGRFTISRDNAKNSLYLQMNSLRAEDTAVYYCARDLPGWYFDLWGRGTLVTVSS VL: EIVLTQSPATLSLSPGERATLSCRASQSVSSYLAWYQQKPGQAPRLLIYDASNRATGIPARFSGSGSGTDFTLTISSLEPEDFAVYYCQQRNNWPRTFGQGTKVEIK    14.5
P1-064480 (41F11_VH_A60H) (antibody, V domains shown, Kabat positions; also called P1-064480-1) VH: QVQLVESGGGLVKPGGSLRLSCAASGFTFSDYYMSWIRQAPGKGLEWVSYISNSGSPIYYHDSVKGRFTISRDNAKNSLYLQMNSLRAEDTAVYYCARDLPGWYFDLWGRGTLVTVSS VL: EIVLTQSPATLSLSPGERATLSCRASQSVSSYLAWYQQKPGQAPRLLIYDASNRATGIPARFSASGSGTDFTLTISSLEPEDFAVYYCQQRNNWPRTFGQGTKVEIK    14.2

Request the reported Kd associated with P1-064528 (41F11_VH_D31E/Y50W/S55E/L96E/Y100E) (antibody, V domains shown, Kabat positions; also called P1-064528-1) VH: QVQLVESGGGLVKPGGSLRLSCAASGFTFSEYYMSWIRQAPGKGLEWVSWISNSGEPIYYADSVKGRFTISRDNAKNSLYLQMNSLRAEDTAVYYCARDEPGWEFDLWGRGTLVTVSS VL: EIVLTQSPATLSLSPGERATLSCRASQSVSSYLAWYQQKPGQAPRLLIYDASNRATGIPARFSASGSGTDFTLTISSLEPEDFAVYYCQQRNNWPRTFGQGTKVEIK
0.167

Lookup P1-065333 (41F11_VH_T28P/Y50W/S55E/L96E/Y100E VK_A64G) (antibody, human IgG1, kappa, V domains shown, IgG1.3; also called P1-065333-1; VISTA.4 pH-independent progeny) VH: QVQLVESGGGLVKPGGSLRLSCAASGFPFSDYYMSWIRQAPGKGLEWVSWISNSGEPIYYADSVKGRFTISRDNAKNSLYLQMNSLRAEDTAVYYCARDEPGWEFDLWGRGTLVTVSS VL: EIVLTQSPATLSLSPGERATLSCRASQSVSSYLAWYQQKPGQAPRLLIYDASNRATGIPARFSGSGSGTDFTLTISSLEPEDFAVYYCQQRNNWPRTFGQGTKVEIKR
0.434

Quick one: P1-061528 (41F11 NGS mut VK_A64G/R91A) (antibody, V domains shown, also called P1-061528-2) VH: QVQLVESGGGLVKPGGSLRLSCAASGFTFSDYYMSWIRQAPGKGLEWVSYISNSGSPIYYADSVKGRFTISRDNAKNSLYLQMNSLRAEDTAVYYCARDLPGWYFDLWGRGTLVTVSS VL: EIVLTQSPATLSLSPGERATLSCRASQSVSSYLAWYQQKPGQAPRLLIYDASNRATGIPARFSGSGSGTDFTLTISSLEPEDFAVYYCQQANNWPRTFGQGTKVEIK
3.86

Also P1-065318 (41F11_VH_L96E VK A64G) (antibody, V domains shown, Kabat positions; also called P1-065318-1) VH: QVQLVESGGGLVKPGGSLRLSCAASGFTFSDYYMSWIRQAPGKGLEWVSYISNSGSPIYYADSVKGRFTISRDNAKNSLYLQMNSLRAEDTAVYYCARDEPGWYFDLWGRGTLVTVSS VL: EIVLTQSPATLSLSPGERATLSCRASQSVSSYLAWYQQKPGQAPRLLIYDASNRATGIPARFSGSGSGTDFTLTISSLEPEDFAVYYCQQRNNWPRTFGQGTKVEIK , if possible.
7.84
